# Tested on: 282377-053-R-J1-PDC complex spheroid viability
# Assay Notes: Anticancer human tumor 282377-053-R-J1-PDC patient-derived colon adenocarcinoma cell line growth inhibition [RAS]
# Test Parameters: second compound 3.16 µM; first compound 1 µM; stronger effect = lower value
Recorded measurements of viability, T/C, one per entry
Express your answer in %, writing the number without its unit.

Below, 2 compounds whose answers are already recorded.
Compound: Nc1ccn(C2OC(CO)C(O)C2(F)F)c(=O)n1 (stereo not drawn) + C#Cc1c(F)ccc2cc(O)cc(-c3ncc4c(N5CC6CCC(C5)N6)nc(OCC56CCCN5CC(F)C6)nc4c3F)c12
Target Entity: 282377-053-R-J1-PDC complex spheroid viability
Value Measured: 43.3
--
Compound: O=C(c1ccc(F)c(F)c1Nc1ccc(I)cc1F)N1CC(O)([C@@H]2CCCCN2)C1 + C#Cc1c(F)ccc2cc(O)cc(-c3ncc4c(N5CC6CCC(C5)N6)nc(OCC56CCCN5CC(F)C6)nc4c3F)c12
Target Entity: 282377-053-R-J1-PDC complex spheroid viability
Value Measured: 15.6

# evaluate next
Form field: reported viability, T/C of CCC(CC)c1cc(NC2CCC(N)C2)n2nccc2n1 (stereo not drawn) + C#Cc1c(F)ccc2cc(O)cc(-c3ncc4c(N5CC6CCC(C5)N6)nc(OCC56CCCN5CC(F)C6)nc4c3F)c12 100

====

# Tested on: 282377-053-R-J1-PDC complex spheroid viability
# Assay Notes: Anticancer human tumor 282377-053-R-J1-PDC cell line growth inhibition [RAS];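 also: spheroids exposed to agents for seven days before readout; luminescence viability as percent of DMSO vehicle control wells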
# Test Parameters: second compound 1 µM; first compound 0.1 µM; stronger effect = lower value
Measured Parameter: viability, T/C (%)
Express your answer in %, writing the number without its unit.

Below, 6 compounds whose answers are already recorded.
Compound: CC(C)NCC(C(=O)N1CCN(c2ncnc3c2C(C)CC3O)CC1)c1ccc(Cl)cc1 (stereo not given) + C=CC(=O)N1CCN(c2nc(OCC3CCCN3C)nc3c(F)c(-c4nc(N)cc(C)c4C(F)(F)F)c(Cl)cc23)C(C)C1
Measured Parameter: viability, T/C
Value Measured: 88.5
--
Compound: CC(C)NCC(C(=O)N1CCN(c2ncnc3c2C(C)CC3O)CC1)c1ccc(Cl)cc1 (stereo not given) + C#Cc1c(F)ccc2cc(O)cc(-c3ncc4c(N5CC6CCC(C5)N6)nc(OCC56CCCN5CC(F)C6)nc4c3F)c12
Measured Parameter: viability, T/C
Value Measured: 79.8
--
Compound: Cc1nc(N2CCC3(CC2)COC(C)C3N)c(CO)nc1Sc1ccnc(N)c1Cl (stereo not given) + C=CC(=O)N1CCN(c2nc(OCC3CCCN3C)nc3c(F)c(-c4nc(N)cc(C)c4C(F)(F)F)c(Cl)cc23)C(C)C1
Measured Parameter: viability, T/C
Value Measured: 113
--
Compound: O=C(c1ccc(F)c(F)c1Nc1ccc(I)cc1F)N1CC(O)([C@@H]2CCCCN2)C1 + C#Cc1c(F)ccc2cc(O)cc(-c3ncc4c(N5CC6CCC(C5)N6)nc(OCC56CCCN5CC(F)C6)nc4c3F)c12
Measured Parameter: viability, T/C
Value Measured: 29
--
Compound: C[C@@H](NC(=O)c1ncnc(N)c1Cl)c1ncc(C(=O)Nc2cc(C(F)(F)F)c(Cl)cn2)s1 + C#Cc1c(F)ccc2cc(O)cc(-c3ncc4c(N5CC6CCC(C5)N6)nc(OCC56CCCN5CC(F)C6)nc4c3F)c12
Measured Parameter: viability, T/C
Value Measured: 86.6
--
Compound: NC1c2ccccc2OC12CCN(c1cnc3c(N4CCCc5ncccc54)n[nH]c3n1)CC2 (stereo not given) + C#Cc1c(F)ccc2cc(O)cc(-c3ncc4c(N5CC6CCC(C5)N6)nc(OCC56CCCN5CC(F)C6)nc4c3F)c12
Measured Parameter: viability, T/C
Value Measured: 88.1

Form field: reported viability, T/C of CCC(CC)c1cc(NC2CCC(N)C2)n2nccc2n1 (stereo not given) + C#Cc1c(F)ccc2cc(O)cc(-c3ncc4c(N5CC6CCC(C5)N6)nc(OCC56CCCN5CC(F)C6)nc4c3F)c12 95.4
